- Target or test system: medaka Esr1 (mEsr1) (Oryzias latipes)
- Construct: expressed in transfected cells; host or cells: HEK293 (human embryonic kidney cells), transient transfection with FuGENE HD
- Sequence (P50241 1-620): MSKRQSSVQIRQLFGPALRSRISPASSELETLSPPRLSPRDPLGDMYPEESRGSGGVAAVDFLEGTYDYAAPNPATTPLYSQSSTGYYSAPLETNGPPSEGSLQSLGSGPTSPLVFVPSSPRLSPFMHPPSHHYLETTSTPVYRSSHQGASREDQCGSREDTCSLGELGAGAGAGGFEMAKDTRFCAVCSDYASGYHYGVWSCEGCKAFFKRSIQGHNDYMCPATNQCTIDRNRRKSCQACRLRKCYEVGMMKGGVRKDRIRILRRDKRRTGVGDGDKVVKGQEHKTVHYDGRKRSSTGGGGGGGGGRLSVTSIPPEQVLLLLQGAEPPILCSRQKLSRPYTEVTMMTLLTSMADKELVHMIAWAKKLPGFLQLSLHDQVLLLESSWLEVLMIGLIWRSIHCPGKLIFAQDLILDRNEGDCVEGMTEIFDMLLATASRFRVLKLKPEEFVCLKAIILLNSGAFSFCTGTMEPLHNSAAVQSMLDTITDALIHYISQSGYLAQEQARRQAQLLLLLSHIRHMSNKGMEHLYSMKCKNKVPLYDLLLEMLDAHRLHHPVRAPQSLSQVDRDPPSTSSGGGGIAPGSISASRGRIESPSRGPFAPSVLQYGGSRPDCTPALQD
- Run description: cell-based
- Assay type: cell-based, Japanese medaka (Oryzias latipes)
pEC50: −log10 of the molar value.
Measure: pEC50

Ask: Read the entry "CC(=O)[C@H]1CC[C@H]2[C@@H]3CCC4=CC(=O)CC[C@]4(C)[C@H]3CC[C@]12C" and write its reported pEC50.
Result: < 5.00

----------
- System: Japanese medaka (Oryzias latipes)
- Run description: Fish short-term reproduction assay (FSTRA, OECD TG229), 21-day flow-through exposure
- Assay context: within the test concentrations, 21-day exposure
- Procedure: The experimental studies on the FSTRA for the 16 chemicals were conducted in two laboratories in Japan, the National Institute for Environmental Studies (NIES, Lab‐1) and the Institute of Environmental Ecology, IDEA Consultants Inc. (Lab‐2), in accordance with OECD TG229 (OECD, [2012a]) (Table 1). The NIES‐R strain of Japanese medaka (O. latipes), one of the orange‐red varieties, was used in all the 16 chemical studies. […]
Measure: effect on fecundity (number of total eggs), in words

CC(C)C(=O)Nc1ccc([N+](=O)[O-])c(C(F)(F)F)c1 [FLT, Flutamide] = No effect
C=CC1(C)OC(=O)N(c2cc(Cl)cc(Cl)c2)C1=O (stereo not shown) = No effect

----------
Give IC50 for every item shown.
- Target or test system: medaka Esr1 (mEsr1) (Oryzias latipes, UniProt P50241)
- Construct: expressed in transfected cells; host or cells: HEK293 (human embryonic kidney cells), transient transfection with FuGENE HD
- Run description: Medaka Esr1 reporter gene assay (RGA), antagonist assay with 1 nM E2, HEK293 cells
- Format: cell-based, Japanese medaka (Oryzias latipes)
- Assay context: mEsr1 RGA antagonist assay, 1 nM E2-mediated transactivation; ND = no significant response even at the highest assay concentration (in parentheses); read-out: Antagonist assay, IC50, Medaka Esr1

Ask: Read the entry "C[C@]12CCC(=O)C=C1CC[C@@H]1[C@@H]2CC[C@@]2(C)[C@H]1CC[C@]2(C)O" and write its reported IC50.
Result: > 10 µM

Ask: Read the entry C[C@]12CC(=O)[C@H]3[C@@H](CCC4=CC(=O)CC[C@@]43C)[C@@H]1CC[C@@H]2O [11KT, 11‐ketotestosterone] and write its reported IC50.
Result: > 100 µM

Ask: Read the entry CCCCCCCCCCCCOS(=O)(=O)[O-].[Na+] [SDS, Sodium dodecyl sulfate] and write its reported IC50.
Result: > 100 µM
